Source listed as patent US11773071B2.

assay: Bidirectional permeability assay (Caco-2 cells); assay type: in vitro ADME; settings: human, Caco-2, absorptive direction (A2B), 10 μM in FaSSIF buffer
ENDPOINT_NAME: Papp A→B at 120 min, 10 μM (nm/s)
Numbers only, in nm/s.

Recorded results for 5 molecules are shown here.
So for CCCCC1(CCCC)CN(c2ccccc2)c2cc(Br)c(OCCC(=O)O)cc2S(=O)(=O)C1 [Example 4] , the logged Papp A→B at 120 min, 10 μM turned out to be 22

For this molecule ( CCCCC1(C)CN(c2ccccc2)c2cc(SC)c(OCCC(=O)O)cc2S(=O)(=O)C1 (single isomer, unassigned) [Example 24] ), measured Papp A→B at 120 min, 10 μM is 225

Reported Papp A→B at 120 min, 10 μM ( CCCCC1(CC)CN(c2ccccc2)c2cc(SC)c(OCC(C)(O)C(=O)O)cc2S(=O)(=O)C1 (single isomer, unassigned) [48, diastereomer 2] ) = 32

Record CCCCC1(CC)CN(c2ccccc2)c2cc(SC)c(OCC(C)(F)C(=O)O)cc2S(=O)(=O)C1 (single isomer, unassigned) [35, diastereomer 1] , field Papp A→B at 120 min, 10 μM: 40

Lab book: Papp A→B at 120 min, 10 μM of CCCCC1(C)CN(c2ccccc2)c2cc(N(C)C)c(OCCC(=O)O)cc2S(=O)(=O)C1 (single isomer, unassigned) [29, enantiomer 1] noted as 205

Provide the reported Papp A→B at 120 min, 10 μM of each entry below, same order.
1. CCCCC1(CC)CN(c2ccccc2)c2cc(N(C)C)c(OCCC(=O)O)cc2S(=O)(=O)C1 (racemic) [Example 16]
2. CCCCC1(CC)CN(c2ccccc2)c2cc(Br)c(OCCC(=O)O)cc2S(=O)(=O)C1 (racemic) [Example 1]

Output:
176
134

====

Give IC50 for every item shown.
molecular target: Human LBAT (Homo sapiens, UniProt Q14973); construct: Geneticin-selected; test: LBAT (h/m) assay, human LBAT-overexpressing cells, 3H-taurocholic acid uptake; details: 0.3 μM 3H-taurocholic acid and 7.5 μM cold taurocholic acid, 20 minutes, read-out: hLBAT IC50
Sequence (Q14973 whole entry): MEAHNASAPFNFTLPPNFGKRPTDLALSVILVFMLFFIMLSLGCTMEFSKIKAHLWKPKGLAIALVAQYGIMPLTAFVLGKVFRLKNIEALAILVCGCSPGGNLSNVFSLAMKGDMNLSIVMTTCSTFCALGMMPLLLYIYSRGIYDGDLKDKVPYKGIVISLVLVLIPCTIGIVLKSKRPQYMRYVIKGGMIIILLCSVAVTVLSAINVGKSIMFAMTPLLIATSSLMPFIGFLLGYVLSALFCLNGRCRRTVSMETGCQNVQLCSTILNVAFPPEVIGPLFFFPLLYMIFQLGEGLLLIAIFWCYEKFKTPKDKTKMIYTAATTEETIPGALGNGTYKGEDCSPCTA
Numbers only, in nM.

See these solved cases before continuing.
Entry CCCCC1(CC)CN(c2ccc(F)cc2)c2cc(SC)c(OCC(O)C(=O)O)cc2S(=O)(=O)C1 (single isomer, unassigned) [42, diastereomer 3] — recorded IC50 = 892

Form field IC50, entry CCCCC1(C)CN(c2ccccc2)c2cc(SC)c(OCC(O)C(=O)O)cc2S(=O)(=O)C1 (centres unmarked) [Example 31] : 359

get_value(item= CCCCC1(CC)CN(c2ccccc2)c2cc(Br)c(OCCC(=O)O)cc2S(=O)(=O)C1 (single isomer, unassigned) [Example 2] , readout=IC50) returns 375

Documented IC50 of CCCCC1(CC)CN(c2ccccc2)c2cc(SC)c(OCC(O)C(=O)O)cc2S(=O)(=O)C1 (single isomer, unassigned) [40, diastereomer 4] : 389

// CCCCC1(CC)CN(c2ccccc2)c2cc(SC)c(OCCC(=O)O)cc2S(=O)(=O)C1 (single isomer, unassigned) [Example 14] : IC50 value = 764

Return reported IC50 values for all items listed beneath this line.
1. CCCCC1(CC)CN(c2ccc(F)cc2)c2cc(SC)c(OCC(O)C(=O)O)cc2S(=O)(=O)C1 (centres unmarked) [Example 41]
2. CCCCC1(C)CN(c2ccccc2)c2cc(SC)c(OCCC(=O)O)cc2S(=O)(=O)C1 (single isomer, unassigned) [Example 23]
3. CCCCC1(CCCC)CN(c2ccccc2)c2cc(SC)c(OCCC(=O)O)cc2S(=O)(=O)C1 [Example 15]
4. CCCCC1(CC)CN(c2ccccc2)c2cc(SC)c(OCC(O)C(=O)O)cc2S(=O)(=O)C1 (single isomer, unassigned) [40, diastereomer 2]
5. CCCCC1(CC)CN(c2ccc(F)cc2)c2cc(SC)c(OCC(O)C(=O)O)cc2S(=O)(=O)C1 (single isomer, unassigned) [42, diastereomer 1]
6. CCCCC1(CC)CN(c2ccccc2)c2cc(Cl)c(OC(C)CC(=O)O)cc2S(=O)(=O)C1 (single isomer, unassigned) [30, diastereomer 1]
7. CCCCC1(CC)CN(c2ccccc2)c2cc(SC)c(OCC(C)(O)C(=O)O)cc2S(=O)(=O)C1 (single isomer, unassigned) [48, diastereomer 1]
8. CCCCC1(CC)CN(c2ccccc2)c2cc(Cl)c(OCCC(=O)O)cc2S(=O)(=O)C1 (single isomer, unassigned) [Example 7]

Output:
495
182
1930
513
1290
283
1190
969

Batch request: IC50 for each of the following compounds.
1. CCCCC1(CC)CN(c2ccccc2)c2cc(Cl)c(OC(C)CC(=O)O)cc2S(=O)(=O)C1 (single isomer, unassigned) [30, diastereomers 1 and 2]
2. CCCCC1(CC)CN(c2ccc(F)cc2)c2cc(SC)c(OCC(O)C(=O)O)cc2S(=O)(=O)C1 (single isomer, unassigned) [42, diastereomer 4]
3. CCCCC1(C)CN(c2ccccc2)c2cc(SC)c(OCC(C)(O)C(=O)O)cc2S(=O)(=O)C1 (single isomer, unassigned) [33, diastereomer 2]

Output:
247
689
1410

Below is a list of compounds. For each, state its recorded IC50.
1. CCCCC1(CC)CN(c2ccccc2)c2cc(SC)c(OCCC(=O)O)cc2S(=O)(=O)C1 (racemic) [Example 12]
2. CCCCC1(CCCC)CN(c2ccccc2)c2cc(SC)c(OCC(OC)C(=O)O)cc2S(=O)(=O)C1 (racemic) [Example 46]

Output:
1. 669
2. 1480

====

test: Bidirectional permeability assay (Caco-2 cells); assay type: in vitro ADME; settings: human, Caco-2, absorptive direction (A2B), 10 μM in FaSSIF buffer
Exercise: state measured Papp A→B at 120 min, 10 μM for each of the compounds provided.
Numbers only, in ×10⁻⁶ cm/s.

// sample `CCCCC1(CCCC)CN(c2ccccc2)c2cc(SC)c(OCCC(=O)O)cc2S(=O)(=O)C1` , its Papp A→B at 120 min, 10 μM was 9.7

For each of the compounds below, note its Papp A→B at 120 min, 10 μM.
1. CCCCC1(CCCC)CN(c2ccccc2)c2cc(SC)c(OCC(O)C(=O)O)cc2S(=O)(=O)C1 (racemic) [Example 9]
2. CCCCC1(CC)CN(c2ccccc2)c2cc(SC)c(OCCC(=O)O)cc2S(=O)(=O)C1 (single isomer, unassigned)
3. CCCCC1(CC)CN(c2ccccc2)c2cc(SC)c(OCC(C)(F)C(=O)O)cc2S(=O)(=O)C1 (stereo not drawn) [Example 34]
4. CCCCC1(CC)CN(c2ccccc2)c2cc(Cl)c(OCCC(=O)O)cc2S(=O)(=O)C1 (single isomer, unassigned)
5. CCCCC1(C)CN(c2ccccc2)c2cc(SC)c(OCC(O)C(=O)O)cc2S(=O)(=O)C1 (single isomer, unassigned) [32, diastereomer 1]

Output:
[1.6, 10.3, 5.4, 13.6, 3.3]
